Tested on: WI-38
Experiment: Cytotoxicity against human WI-38 cells by measuring effective concentration incubated for 72 hrs by MTT assay
Format: toxicity, cell-based
Settings: wi-38, 72 h
Lab note: class by EC100, see zone 1: < 0.2 µM; zone 2: ≥ 0.2 µM and < 0.3 µM; zone 3: ≥ 0.3 µM

# input GET /class?item= O=C(c1ccccc1)[C@H]1[C@H](c2cn(-c3ccccc3)nc2-c2ccccc2)[C@@H]2CC3CCCCC3N2[C@]12C(=O)Nc1ccccc12 (stereo partly specified)
# output zone 3

# input GET /class?item= O=C(c1ccc(Br)cc1)[C@H]1[C@H](c2cn(-c3ccccc3)nc2-c2ccccc2)[C@@H]2CC3CCCCC3N2[C@]12C(=O)Nc1ccccc12 (stereo partly specified)
# output zone 2

# input GET /class?item= O=C(c1ccc([N+](=O)[O-])cc1)[C@H]1[C@H](c2cn(-c3ccccc3)nc2-c2ccccc2)[C@@H]2CC3CCCCC3N2[C@]12C(=O)Nc1ccc(Cl)cc12 (stereo partly specified)
# output zone 2

# input GET /class?item= "CN1C[C@@H](c2cn(-c3ccccc3)nc2-c2ccccc2)[C@H](C(=O)c2ccccc2)[C@@]12C(=O)Nc1ccccc12"
# output zone 3

# input GET /class?item= O=C(c1ccccc1)[C@H]1[C@H](c2cn(-c3ccccc3)nc2-c2ccccc2)[C@@H]2CC3CCCCC3N2[C@]12C(=O)Nc1cc(Cl)ccc12 (stereo partly specified)
# output zone 2

# input GET /class?item= O=C(c1ccccc1[N+](=O)[O-])[C@H]1[C@H](c2cn(-c3ccccc3)nc2-c2ccccc2)[C@@H]2CC3CCCCC3N2[C@]12C(=O)Nc1cc(Cl)ccc12 (stereo partly specified)
# output zone 1

# input GET /class?item= O=C(c1ccc([N+](=O)[O-])cc1)[C@H]1[C@H](c2cn(-c3ccccc3)nc2-c2ccccc2)[C@@H]2CC3CCCCC3N2[C@]12C(=O)Nc1ccccc12 (stereo partly specified)
# output zone 3

# input GET /class?item= "CN1C[C@@H](c2cn(-c3ccccc3)nc2-c2ccccc2)[C@H](C(=O)c2ccc([N+](=O)[O-])cc2)[C@@]12C(=O)Nc1ccc(Cl)cc12"
# output zone 2

# input GET /class?item= O=C(c1ccccc1[N+](=O)[O-])[C@H]1[C@H](c2cn(-c3ccccc3)nc2-c2ccccc2)[C@@H]2CC3CCCCC3N2[C@]12C(=O)Nc1ccc(Cl)cc12 (stereo partly specified)
# output zone 1

# input GET /class?item= O=C(c1ccccc1[N+](=O)[O-])[C@H]1[C@H](c2cn(-c3ccccc3)nc2-c2ccccc2)[C@@H]2CC3CCCCC3N2[C@]12C(=O)Nc1ccccc12 (stereo partly specified)
# output zone 2

Hey, just so you know, these numbers are from ChEMBL document CHEMBL5584324.
